Ref: PubChem BioAssay (NCI)

- System: RXF-631 renal
- testDescription: NCI tumour cell line growth inhibition, 48 h
Reported TGI values are given for each entry in this list.
readoutName: TGI (µM)

INSERT INTO measurements (molecule, testedon, reportedrelation, obsvalue) VALUES
  ('Cc1cc(Br)cc(C)c1NC(=O)C(=O)C(C(=O)c1ccncc1)C1OC(=O)c2ccccc21 (centres undefined)', 'RXF-631 renal', '>', 100),
  ('O=c1/c(=C/c2c(O)ccc3ccccc23)sc2nc3ccccc3n12', 'RXF-631 renal', '>', 100),
  ('COC1=CC(=O)C(Br)=CC1=O', 'RXF-631 renal', '=', 99.2),
  ('CN(C)CCNC(=O)c1cccc2nc3ccc4cccnc4c3nc12', 'RXF-631 renal', '=', 11.8);

* * *

- Test system: SN12C renal
- testDescription: NCI tumour cell line growth inhibition, 48 h
The entries below are paired with their reported GI50.
readoutName: GI50

INSERT INTO assay_data (chemicalstring, obsvalue) VALUES
  ('C=C(C)[C@@H]1CC[C@]2(COCCCNCCCN)CC[C@]3(C)[C@H](CC[C@@H]4[C@@]5(C)CC[C@H](OCCCN)C(C)(C)[C@@H]5CC[C@]43C)[C@@H]12', '867 nM'),
  ('Cc1cc(C(=O)Nc2cc(Oc3ccc4nc(NC(=O)C5CC5)cn4n3)ccc2C)n(C)n1', '> 10000 nM'),
  ('Nc1ncnc2c1c(-c1ccc(Oc3ccccc3)cc1)nn2C[C@H]1SSC[C@@H]1O', '1360 nM'),
  ('CCN(CC)CCCOc1ccc2ncnc(Nc3ccc(Oc4cccc(C(F)(F)F)c4)c(Cl)c3)c2c1', '1340 nM'),
  ('c1cc(CN2CCCNCCNCCCNCC2)ccc1CN1CCCNCCNCCCNCC1', '> 100000 nM');

* * *

- Test system: CCRF-CEM leukemia
- testDescription: NCI tumour cell line growth inhibition, 48 h; in the data active = GI50 below about 0.43 µM; inactive = the rest
Outcomes: active, inactive

INSERT INTO measurements (compound, class) VALUES
  ('CC(C)=O.O=C([O-])C(F)(F)F.O=C([O-])C(F)(F)F.O=C([O-])C(F)(F)F.O=C([O-])C(F)(F)F.[Rh+2].[Rh+2]', 'inactive'),
  ('Nc1ncnc2c1c(-c1ccc(Oc3ccccc3)cc1)nn2C[C@H]1SSC[C@@H]1O', 'active'),
  ('C=C1C(=O)O[C@H]2[C@H]1CC/C(Cn1cc(Cc3c[nH]c4ccccc34)nn1)=C\CC[C@@]1(C)O[C@@H]21', 'inactive'),
  ('Clc1ccccc1[C@@H]1C[C@@H]2Cc3cc(Br)c4ccccc4c3N1O2', 'inactive'),
  ('COc1ccc(-c2nsc3c2NC(=O)CC3c2ccc3c(c2)OCCO3)cc1 (stereo not drawn)', 'active'),
  ('O=c1cc(-c2ccccc2)oc2ccc(OC/C(=N/O)c3ccc(F)cc3)cc12', 'inactive'),
  ('CCCCC[C@H]1CC=C2C(=O)C=C[C@@H]2CC=CCCCC(=O)O[C@@H](CCCCC)CC=C2C(=O)C=C[C@@H]2CC=CCCCC(=O)O[C@@H](CCCCC)CC=C2C(=O)C=C[C@@H]2CC=CCCCC(=O)O1', 'active'),
  ('Cc1ccc2[nH]c3c(c2c1)N=c1ccccc1=NO3', 'inactive');

* * *

Catalogue of molecules with associated TGI
- System: MDA-N
- testDescription: NCI tumour cell line growth inhibition, 48 h
readoutName: TGI

INSERT INTO results (molecule, obsvalue) VALUES
  ('COCCOC(C)C(=O)C(O)S(=O)(=O)O (stereo unspecified)', '> 100 µM'),
  ('Cc1cn(CCC(N)C(=O)O)c(=O)[nH]c1=O (stereo unspecified)', '> 100 µM'),
  ('CC(CN1CC(=O)NC(=O)C1)N1CC(=O)NC(=O)C1 (stereo unspecified)', '> 750 µM'),
  ('Clc1ccc2nc3n[nH]c(Cl)c3nc2c1', '> 100 µM'),
  ('O=C(O)CN1CCCC(Cc2c[nH]c3ccccc23)C1 (stereo unspecified)', '> 100 µM'),
  ('CCn1c(-c2ccc(OC)cc2)nc2c1C(=O)c1ccccc1C2=O', '> 100 µM'),
  ('N/C(=N\NC(=O)c1nc2ccccc2s1)c1ccccn1', '> 100 µM'),
  ('CC(=O)NNc1nc(C)c(C(/C=C/c2ccc([N+](=O)[O-])cc2)=N/NC(N)=O)s1', '> 100 µM'),
  ('O=c1c(Nc2ccccc2)cn(CCOc2ccc(Cl)cc2)c(=O)n1CCOc1ccc(Cl)cc1', '> 100 µM'),
  ('CCNC(=O)NNc1ncnc2c1c(-c1ccc(Cl)cc1)cn2-c1ccc(C)cc1', '36.8 µM'),
  ('CCOC(=O)CCC(NC(=O)c1ccc(Nc2nc3cc(C(F)(F)F)ccc3nc2C(=O)OCC)cc1)C(=O)OCC (stereo unspecified)', '21.3 µM');
